# Tested on: tonic-extensoric spasms on the hind limbs (pentetrazole)
# Assay summary: Spasmolytic action on mice (pentetrazole-induced tonic-extensoric spasms)
# Type: in vivo, white mice
# Condition context: pentetrazole spasm, mice, p.o.
Where a name gives a salt, the structure may show the parent alone.
Outcome measure: Therapeutical index LD50/ED50
// print number alone

Solved cases (3 shown):
compound="CNCC(C)CN1c2ccccc2OCOc2ccc(Cl)cc21 (centres unmarked) [Example 3, hydrochloride]" outcome_measure="Therapeutical index LD50/ED50" numeric_value=26.3
compound="CC(CN(C)C)CN1c2ccccc2OCOc2ccc(Cl)cc21 (centres unmarked) [traboxopin]" outcome_measure="Therapeutical index LD50/ED50" numeric_value=8.4
compound="CNCCCN1c2ccccc2OCOc2ccc(Cl)cc21 [Example 4, maleate]" outcome_measure="Therapeutical index LD50/ED50" numeric_value=28.8

q: State the recorded Therapeutical index LD50/ED50 for this entry: CN1C(=O)OC(C)(C)C1=O [trimetadione, 3,5,5-trimethyl-oxazolidine-2,4-dione]
a: 5.5

q: Next: CCC1(c2ccccc2)C(=O)NC(=O)NC1=O [phenobarbital, 5-ethyl-5-phenylbarbituric acid]
a: 8.8
